assay: Inhibitory activity against Opioid receptor delta 1 binding to bovine striatal membrane
parameter: IC50 (nM)
Write the value in nM as a bare number.

-- ask Please give the documented IC50 of `CN1CC[C@]23c4c5ccc(O)c4O[C@@]2(C)C(=O)CC[C@@]3(NC(=O)CSSCC(=O)N[C@@]23CCC(=O)[C@]4(C)Oc6c(O)ccc7c6[C@@]42CCN(C)C3C7)C1C5`
-- reply 52

Continuing:
-- ask Please give the documented IC50 of `C[C@@]12Oc3c(O)ccc4c3[C@@]13CCN(CC1CC1)[C@H](C4)[C@]3(NC(=O)CSSCC(=O)N[C@@]13CCC(=O)[C@]4(C)Oc5c(O)ccc6c5[C@@]41CCN(CC1CC1)[C@@H]3C6)CCC2=O`
-- reply 5.3

---

Reported pIC50 values for the following compounds.
experiment: Inhibitory activity against Opioid receptor kappa1 binding to bovine striatal membrane
By convention, pIC50 is the negative base-10 log of a molar concentration.

-- ask Please give the documented pIC50 of `CN1CC[C@]23c4c5ccc(O)c4O[C@@]2(C)C(=O)CC[C@@]3(NC(=O)CSSCC(=O)N[C@@]23CCC(=O)[C@]4(C)Oc6c(O)ccc7c6[C@@]42CCN(C)C3C7)C1C5`
-- reply 7.05

We now examine a further compound.
-- ask Please give the documented pIC50 of `C[C@@]12Oc3c(O)ccc4c3[C@@]13CCN(CC1CC1)[C@H](C4)[C@]3(NC(=O)CSSCC(=O)N[C@@]13CCC(=O)[C@]4(C)Oc5c(O)ccc6c5[C@@]41CCN(CC1CC1)[C@@H]3C6)CCC2=O`
-- reply 8.11

These data points were gathered from BindingDB's records for doi:10.1016/0960-894X(95)00287-4.
